Catalogue of Emax readings, one per entry.
target_entity: LXRβ (Homo sapiens)
Construct: Co-transfection expression plasmids, comprising full-length LXRα (pCMX-h LXRα[…] or LXRβ (pCMX-hLXRβ)); expressed in transfected cells; host or cells: CV-1 African Green Monkey Kidney Cells
assay_procedure: Co-transfection assay (LXRE luciferase reporter), LXRβ
Type: cell-based
recorded_conditions: LXRβ co-transfection; relative to high control 1-(2,4-difluorobenzyl)-2-oxo-6-(4-phenoxyphenyl)-4-(trifluoromethyl)-1,2-dihydropyridine-3-carbonitrile; read-out: % Efficacy
Express the result in % but write the number alone.

Some entries whose results are on file:
chem_smiles | Emax (%)
Cc1nc(-c2cc(-c3cccc(S(C)(=O)=O)c3)ccc2-n2cc(C(F)(F)F)nc2C)c(-c2ccc(Cl)cc2Cl)o1 | 89
Cc1nc(C(F)(F)F)cn1-c1ccc(-c2cccc(S(=O)(=O)C(C)C)c2)cc1-n1nncc1-c1ccc(OC(F)(F)F)cc1 | 91

Turning now to a further molecule:
Prompt: Requested field: Emax. Item: Cc1nc(C(F)(F)F)cn1-c1ccc(-c2cccc(S(C)(=O)=O)c2)cc1-n1nncc1-c1ccc(C(F)(F)F)cc1
Response: 91

====

target_entity: LXRβ (Homo sapiens)
Construct: Co-transfection expression plasmids, comprising full-length LXRα (pCMX-h LXRα[…] or LXRβ (pCMX-hLXRβ)); expressed in transfected cells; host or cells: CV-1 African Green Monkey Kidney Cells
assay_procedure: Co-transfection assay (LXRE luciferase reporter), LXRβ
Type: cell-based
recorded_conditions: LXRβ co-transfection; relative to high control 1-(2,4-difluorobenzyl)-2-oxo-6-(4-phenoxyphenyl)-4-(trifluoromethyl)-1,2-dihydropyridine-3-carbonitrile; read-out: % Efficacy
Method: To measure the ability of compounds to activate or inhibit the transcriptional activity of LXR in a cell based assay, the co-transfection assay was used. It has been shown that LXR functions as a heterodimer with RXR. […] Treatment of transfected cells with an LXR agonist increases the transcriptional activity of LXR, which is measured by an increase in luciferase activity. […]
property: Emax (%)
Express the result in % but write the number alone.

Some entries whose results are on file:
chem_smiles | experimental_value
Cc1nc(C(F)(F)F)cn1-c1ccc(-c2cccc(S(C)(=O)=O)c2)cc1-n1nncc1-c1ccc(F)cc1 | 85
Cc1nc(-c2cc(-c3cccc(S(C)(=O)=O)c3)ccc2-n2cc(C(F)(F)F)nc2C)c(-c2ccc(Cl)cn2)o1 | 85
Cc1nc(-c2cc(-c3cccc(S(C)(=O)=O)c3)ccc2-n2cc(C(F)(F)F)nc2C)c(-c2cc(F)cc(Cl)c2)o1 | 57

Turning now to a further compound:
Prompt: Recall the recorded Emax for Cc1nc(-c2cc(-c3cc(F)c(CO)c(S(C)(=O)=O)c3)ccc2-n2cc(C(F)(F)F)nc2C)c(-c2ccc(Cl)nc2)o1 with LXRβ (Homo sapiens) and state it.
Response: 79

====

Catalogue of Emax readings, one per entry.
target_entity: LXRβ (Homo sapiens, UniProt P55055)
Construct: Co-transfection expression plasmids, comprising full-length LXRα (pCMX-h LXRα[…] or LXRβ (pCMX-hLXRβ)); expressed in transfected cells; host or cells: CV-1 African Green Monkey Kidney Cells
Sequence (P55055 1-460): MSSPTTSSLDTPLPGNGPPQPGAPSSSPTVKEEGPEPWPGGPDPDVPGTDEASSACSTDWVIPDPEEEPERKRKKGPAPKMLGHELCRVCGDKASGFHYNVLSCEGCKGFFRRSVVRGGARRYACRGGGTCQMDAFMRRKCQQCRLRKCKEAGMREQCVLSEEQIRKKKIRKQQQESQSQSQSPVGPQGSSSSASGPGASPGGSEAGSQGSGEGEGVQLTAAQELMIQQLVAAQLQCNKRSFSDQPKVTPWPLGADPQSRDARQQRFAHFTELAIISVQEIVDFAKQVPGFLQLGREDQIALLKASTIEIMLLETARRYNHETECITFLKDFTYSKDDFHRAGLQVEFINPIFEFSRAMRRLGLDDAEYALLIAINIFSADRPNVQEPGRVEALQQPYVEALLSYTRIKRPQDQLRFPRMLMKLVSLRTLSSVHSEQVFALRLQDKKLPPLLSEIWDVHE
Sequence (P19793 1-462 partner): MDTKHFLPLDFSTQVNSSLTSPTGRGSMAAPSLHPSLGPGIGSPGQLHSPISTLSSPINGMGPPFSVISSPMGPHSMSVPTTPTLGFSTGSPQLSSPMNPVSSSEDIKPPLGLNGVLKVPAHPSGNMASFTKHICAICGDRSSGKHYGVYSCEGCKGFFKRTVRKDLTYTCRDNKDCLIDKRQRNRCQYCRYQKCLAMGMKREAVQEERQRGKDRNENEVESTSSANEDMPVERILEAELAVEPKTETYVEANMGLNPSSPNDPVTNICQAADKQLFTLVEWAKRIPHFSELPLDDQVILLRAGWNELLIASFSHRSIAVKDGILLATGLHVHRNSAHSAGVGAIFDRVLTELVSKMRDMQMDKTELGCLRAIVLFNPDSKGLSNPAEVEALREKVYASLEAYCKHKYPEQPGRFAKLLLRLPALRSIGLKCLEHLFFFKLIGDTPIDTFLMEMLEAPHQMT
assay_procedure: Co-transfection assay (LXRE luciferase reporter), LXRβ
Type: cell-based
recorded_conditions: LXRβ co-transfection; relative to high control 1-(2,4-difluorobenzyl)-2-oxo-6-(4-phenoxyphenyl)-4-(trifluoromethyl)-1,2-dihydropyridine-3-carbonitrile; read-out: % Efficacy
Express the result in % but write the number alone.

molecule | experimental_value
Cc1nc(C(F)(F)F)cn1-c1ccc(-c2cc(F)c(CO)c(S(C)(=O)=O)c2)cc1-n1nncc1-c1ccc(OC(F)(F)F)cc1 [Example 211] | 99
Cc1nc(C(F)(F)F)cn1-c1ccc(-c2cccc(S(C)(=O)=O)c2)cc1-c1oc(CCN2CCCC2)nc1-c1ccc(OC(F)(F)F)cc1 [Example 620] | 94

Turning now to a further molecule:
Prompt: Requested field: Emax. Item: Cc1nc(C2CC2)cn1-c1ccc(-c2cccc(S(C)(=O)=O)c2)cc1-n1nncc1-c1ccc(OC(F)(F)F)cc1 [Example 229]
Response: 72

====

target_entity: LXRβ (Homo sapiens, UniProt P55055)
Construct: Co-transfection expression plasmids, comprising full-length LXRα (pCMX-h LXRα[…] or LXRβ (pCMX-hLXRβ)); expressed in transfected cells; host or cells: CV-1 African Green Monkey Kidney Cells
assay_procedure: Co-transfection assay (LXRE luciferase reporter), LXRβ
Format: cell-based
recorded_conditions: LXRβ co-transfection; relative to high control 1-(2,4-difluorobenzyl)-2-oxo-6-(4-phenoxyphenyl)-4-(trifluoromethyl)-1,2-dihydropyridine-3-carbonitrile; read-out: % Efficacy
property: Emax (%)
Express the result in % but write the number alone.

Some entries whose results are on file:
chem_smiles | Emax, %
Cc1nc(C(F)(F)F)cn1-c1ccc(-c2cc(Cl)c(CO)c(S(C)(=O)=O)c2)cc1-n1nncc1Cc1ccc(Cl)cc1 | 64
Cc1nc(-c2cc(-c3cccc(S(C)(=O)=O)c3)ccc2-n2cc(Cl)nc2C)c(-c2ccc(OC(F)F)c(F)c2)o1 | 84
Cc1nc(C(F)(F)F)cn1-c1ccc(-c2cccc(S(C)(=O)=O)c2)cc1-c1nc(C(C)C)oc1-c1ccc(OC(F)(F)F)cc1 | 76

Turning now to a further compound:
Prompt: Requested field: Emax. Item: Cc1nc(C(F)(F)F)c(Cl)n1-c1ccc(-c2cccc(S(C)(=O)=O)c2)cc1-n1nncc1-c1ccc(Cl)cc1Cl
Response: 95

====

target_entity: LXRβ (Homo sapiens)
Construct: Co-transfection expression plasmids, comprising full-length LXRα (pCMX-h LXRα[…] or LXRβ (pCMX-hLXRβ)); expressed in transfected cells; host or cells: CV-1 African Green Monkey Kidney Cells
assay_procedure: Co-transfection assay (LXRE luciferase reporter), LXRβ
Format: cell-based
recorded_conditions: LXRβ co-transfection; relative to high control 1-(2,4-difluorobenzyl)-2-oxo-6-(4-phenoxyphenyl)-4-(trifluoromethyl)-1,2-dihydropyridine-3-carbonitrile; read-out: % Efficacy
property: Emax
Write the quantity with the unit trailing the number.

Some entries whose results are on file:
compound | target_entity | Emax
Cc1nc(-c2cc(-c3cccc(S(=O)(=O)N(C)C)c3)ccc2-n2cc(C(F)(F)F)nc2C)c(-c2ccc(OC(F)F)cc2)o1 [Example 541] | LXRβ (Homo sapiens) | 90%
CNS(=O)(=O)c1cccc(-c2ccc(-n3cc(C(F)F)nc3C)c(-n3nncc3C(C)c3ccc(Cl)cc3)c2)c1 (stereo not drawn) [Example 130] | LXRβ (Homo sapiens) | 68%
Cc1nc(C(F)(F)F)cn1-c1ccc(-c2cccc(S(C)(=O)=O)c2)cc1-c1ocnc1Cc1ccc(Cl)cc1 [Example 634] | LXRβ (Homo sapiens) | 68%

Prompt: Requested field: Emax. Item: Cc1nc(C(F)(F)F)cn1-c1ccc(-c2ccc(CO)c(S(C)(=O)=O)c2)cc1-c1ccnn1-c1ccc2c(c1)OC(F)(F)O2 [Example 295]
Response: 80%

Prompt: # iterate: COc1ccc(-c2cnnn2-c2cc(-c3cccc(S(C)(=O)=O)c3)ccc2-n2cc(C(F)(F)F)nc2C)c(C)c1 [Example 24]
Response: 90%

Prompt: # iterate: Cc1nc(C(F)(F)F)cn1-c1ccc(-c2cccc(S(C)(=O)=O)c2)cc1-n1nncc1C(O)(c1ccc(Cl)cc1)C(F)(F)F (stereo not drawn) [Example 11]
Response: 79%
